# Tested on: E. coli MG1655
# method description: High-throughput screening of FDA-approved drug library for antibiotic adjuvants (growth inhibition, OD600)
# Type: cell-based, Escherichia coli
# measurement parameters: library drug alone, LB medium, 96-well, 8 h static culture at 37°C, relative to PMBN (positive) and DMSO (negative) controls, %, table head prints no unit
Counter-ions that a name gives are not always drawn.
measure: Growth inhibition, Compound (%)
Give bare numbers, in %.

Example entries and their recorded answers appear below.
>  <molecule>
N[C@@H]1[C@H]2CN(c3nc4c(cc3F)c(=O)c(C(=O)O)cn4-c3ccc(F)cc3F)C[C@@H]12 [Trovafloxacin mesylate]

>  <experimental system>
E. coli MG1655

>  <unit tag>
%

>  <value measured>
116

$$$$
>  <molecule>
COc1c(N2C[C@@H]3CCCN[C@@H]3C2)c(F)cc2c(=O)c(C(=O)O)cn(C3CC3)c12 [Moxifloxacin hydrochloride]

>  <experimental system>
E. coli MG1655

>  <unit tag>
%

>  <value measured>
111

$$$$
>  <molecule>
CC(=O)OCC1=C(C(=O)O)N2C(=O)[C@@H](NC(=O)Cc3cccs3)[C@H]2SC1 [Cephalotin acid]

>  <experimental system>
E. coli MG1655

>  <unit tag>
%

>  <value measured>
92

$$$$
>  <molecule>
CC1(C)S[C@@H]2[C@H](NC(=O)Cc3ccccc3)C(=O)N2[C@H]1C(=O)O [Penicillin G sodium salt]

>  <experimental system>
E. coli MG1655

>  <unit tag>
%

>  <value measured>
38

$$$$
>  <molecule>
CCO/N=C(\C(=O)N[C@@H]1C(=O)N2C(C(=O)[O-])=C(Sc3nc(-c4cc[n+](C)cc4)cs3)CS[C@H]12)c1nsc(NP(=O)(O)O)n1 [Ceftaroline fosamil]

>  <experimental system>
E. coli MG1655

>  <unit tag>
%

>  <value measured>
93

$$$$
>  <molecule>
CO/N=C(\C(=O)N[C@@H]1C(=O)N2C(C(=O)O)=C(C[n+]3cccc4c3CCC4)CS[C@H]12)c1csc(N)n1.O=S(=O)([O-])O [Cefpirome sulfate]

>  <experimental system>
E. coli MG1655

>  <unit tag>
%

>  <value measured>
93

$$$$
>  <molecule>
Cc1nnc(SCC2=C(C(=O)O)N3C(=O)[C@@H](NC(=O)Cn4cnnn4)[C@H]3SC2)s1 [Cefazolin sodium salt]

>  <experimental system>
E. coli MG1655

>  <unit tag>
%

>  <value measured>
90

$$$$
>  <molecule>
CN(C)[C@@H]1C(O)=C(C(N)=O)C(=O)[C@@]2(O)C(O)=C3C(=O)c4c(O)cccc4[C@@](C)(O)C3[C@H](O)C12.Cl (some centres unmarked) [Aquacycline]

>  <experimental system>
E. coli MG1655

>  <unit tag>
%

>  <value measured>
110

$$$$
>  <molecule>
S=C=NCc1ccccc1 [Benzyl isothiocyanate]

>  <experimental system>
E. coli MG1655

>  <unit tag>
%

>  <value measured>
71

$$$$
>  <molecule>
CO/N=C(\C(=O)N[C@@H]1C(=O)N2C(C(=O)O)=C(COC(C)=O)CS[C@H]12)c1csc(N)n1 [Cefotaxime]

>  <experimental system>
E. coli MG1655

>  <unit tag>
%

>  <value measured>
113

$$$$

Hi there! I need Growth inhibition, Compound for each item below, if you can.
1. C[C@H]1c2cccc(O)c2C(=O)C2=C(O)[C@]3(O)C(=O)C(C(N)=O)=C(O)[C@@H](N(C)C)[C@@H]3[C@@H](O)[C@@H]21 [Doxycycline]
2. CN[C@@H]1[C@@H](O)[C@@H](O[C@@H]2[C@@H](O)[C@H](O[C@H]3O[C@H](CN)[C@@H](O)[C@H](O)[C@H]3O)[C@@H](N)C[C@H]2NC(=O)[C@@H](O)CN)OC[C@]1(C)O [Isepamicin sulfate]
3. Cc1cc(C2CCCCC2)n(O)c(=O)c1 [Ciclopirox]
4. C[C@H]1COc2c(N3CCN(C)CC3)c(F)cc3c(=O)c(C(=O)O)cn1c23 [Levofloxacin hydrochloride]

Output line:
118
108
70
110

* * *

For each entry below, report its Growth inhibition, Compound value.
# System: E. coli MG1655
# method description: High-throughput screening of FDA-approved drug library for antibiotic adjuvants (growth inhibition, OD600)
# Assay type: cell-based, Escherichia coli
# measurement parameters: library drug alone, LB medium, 96-well, 8 h static culture at 37°C, relative to PMBN (positive) and DMSO (negative) controls, %, table head prints no unit
Structures can show the parent of a compound that is named as a salt.
Answers are plain numbers, in %.

Example entries and their recorded answers appear below.
>  <compound>
CC[C@H]1OC(=O)[C@H](C)[C@@H](O[C@H]2C[C@@](C)(OC)[C@@H](O)[C@H](C)O2)[C@H](C)[C@@H](O[C@@H]2O[C@H](C)C[C@H](N(C)C)[C@H]2O)[C@](C)(O)C[C@@H](C)C(=O)[C@H](C)[C@H]2OC(=O)O[C@@]21C

>  <Growth inhibition, Compound, %>
114

$$$$
>  <compound>
CCCCCCCCc1ccc(CCC(N)(CO)CO)cc1 [Fingolimod]

>  <Growth inhibition, Compound, %>
90

$$$$
>  <compound>
Cc1cc(CC(C)CC(C)(C)C)n(O)c(=O)c1.NCCO (stereo not drawn)

>  <Growth inhibition, Compound, %>
54

$$$$
>  <compound>
NCC[C@H](O)C(=O)N[C@@H]1C[C@H](N)[C@@H](O[C@H]2O[C@H](CN)[C@@H](O)[C@H](O)[C@H]2O)[C@H](O)[C@H]1O[C@H]1O[C@H](CO)[C@@H](O)[C@H](N)[C@H]1O

>  <Growth inhibition, Compound, %>
105

$$$$
>  <compound>
CC1COc2c(N3CCN(C)CC3)c(F)cc3c(=O)c(C(=O)O)cn1c23 (stereo not drawn)

>  <Growth inhibition, Compound, %>
107

$$$$

Hi there! I need Growth inhibition, Compound for each item below, if you can.
1. C[C@@H]1O[C@@H]1P(=O)(O)O.NC(CO)(CO)CO
2. CC1(C)S[C@@H]2[C@H](NC(=O)[C@H](N)c3ccccc3)C(=O)N2[C@H]1C(=O)OCOC(=O)[C@@H]1N2C(=O)C[C@H]2S(=O)(=O)C1(C)C [Sultamicillin Tosylate]

Output line:
[104, 93]

Hi there! I need Growth inhibition, Compound for each item below, if you can.
1. CNC1CCCN(c2c(F)cc3c(=O)c(C(=O)O)cn(C4CC4)c3c2OC)C1 (stereo not drawn)
2. CO/N=C(\C(=O)N[C@@H]1C(=O)N2C(C(=O)OCOC(=O)C(C)(C)C)=C(/C=C\c3scnc3C)CS[C@H]12)c1csc(N)n1
3. CCn1cc(C(=O)[O-])c(=O)c2ccc(C)nc21.[Na+] [Nalidixic acid sodium salt]
4. CO/N=C1\CN(c2nc3c(cc2F)c(=O)c(C(=O)O)cn3C2CC2)CC1CN (stereo not drawn) [Gemifloxacin mesylate]
5. C[C@H]1c2cccc(O)c2C(=O)C2=C(O)[C@]3(O)C(=O)C(C(N)=O)=C(O)[C@@H](N(C)C)[C@@H]3[C@@H](O)[C@@H]21 [Doxycycline hydrochloride]

Output line:
1: 108; 2: 73; 3: 63; 4: 105; 5: 114

Hi there! I need Growth inhibition, Compound for each item below, if you can.
1. c1cnc2c(c1)ccc1cccnc12
2. NC[C@H]1O[C@H](O[C@H]2[C@H](O)[C@@H](O[C@H]3O[C@H](CO)[C@@H](O)[C@H](N)[C@H]3O)[C@H](N)C[C@@H]2N)[C@H](N)C[C@@H]1O
3. CO/N=C(\C(=O)N[C@@H]1C(=O)N2C(C(=O)O)=C(CSc3nc(C)c(CC(=O)O)s3)CS[C@H]12)c1csc(N)n1 [Cefodizime Sodium]

Output line:
79
107
88

Hi there! I need Growth inhibition, Compound for each item below, if you can.
1. Nc1nc(-n2cc(C(=O)O)c(=O)c3cc(F)c(N4CC(O)C4)c(Cl)c32)c(F)cc1F
2. NC[C@H]1O[C@H](O[C@H]2[C@H](O)[C@@H](O[C@H]3O[C@H](CO)[C@@H](O)[C@H](N)[C@H]3O)[C@H](N)C[C@@H]2N)[C@H](O)[C@@H](O)[C@@H]1O [Kanamycin sulfate]
3. CN(C)CCn1nnnc1SCC1=C(C(=O)O)N2C(=O)[C@@H](NC(=O)Cc3csc(N)n3)[C@H]2SC1 [Cefotiam hydrochloride]
4. CS(=O)(=O)c1ccc([C@@H](O)[C@@H](CF)NC(=O)C(Cl)Cl)cc1
5. CO[C@H]1/C=C/O[C@@]2(C)Oc3c(C)c(O)c4c(c3C2=O)C2=NC3(CCN(CC(C)C)CC3)NC2=C(NC(=O)/C(C)=C\C=C\[C@H](C)[C@H](O)[C@@H](C)[C@@H](O)[C@@H](C)[C@H](OC(C)=O)[C@@H]1C)C4=O
6. OB1OCc2cc(F)ccc21
7. CC1(C)S[C@@H]2[C@H](NC(=O)[C@H](C(=O)O)c3ccsc3)C(=O)N2[C@H]1C(=O)O [Ticarcillin sodium]
8. O=[N+]([O-])C(Br)(CO)CO

Output line:
[105, 109, 105, 116, 94, 91, 86, 100]
